particulars: 313.15 K; 101.33 kPa; Liquid
reported-endpoint: viscosity (mPa·s)
Numbers only, in mPa·s.

Give me viscosity for each of these molecules, listed below.
1. CCCCCCCC
2. CCCCCCO
3. CCCCCCC(=O)OC [methyl heptanoate]
4. CCCCC(=O)OC [methyl pentanoate]

[reply]
0.43
2.966
0.823
0.551

====

particulars: 293.15 K; 101 kPa; Liquid
± gives the expanded uncertainty stated by the source.
Would you mind telling me the reported mass density of each entry?

Consider the reported mass density for these compounds:
[
  {
    "compound": "CCCCCCC(=O)OC [methyl heptanoate]",
    "result": "879.96 ± 0.43 kg/m3"
  },
  {
    "compound": "CCCCC(=O)OC [methyl pentanoate]",
    "result": "889.75 ± 0.47 kg/m3"
  },
  {
    "compound": "CCCCCCO",
    "result": "818.84 ± 0.29 kg/m3"
  }
]

The compound listed as `CCCCCCCC` shows mass density equal to 702.54 ± 0.3 kg/m3
